Target: Venezuelan equine encephalitis virus (VEEV) virus-like particles (Venezuelan equine encephalitis virus, strain TC-83) (UniProt P09592)
Assay: SPR; Biacore T200; […]; 30 µl/min, 25 °C, HBS-P plus 1 mM CaCl2; global 1:1 fit; […]
assay endpoint: pKd
Give bare numbers, as −log10 of the molar value.

Ask | Field request: pKd | item: LDLRAD3(D1+D2), cleaved monomeric ectodomain of mouse LDLRAD3, domains 1 and 2 (from UniProt A2AR95 18-112) (domain or fragment)
Reply | 7.30
